Source listed as paper PMC12124358.

- target: Clr4 lysine methyltransferase (KMT) domain (residues 192 to 490) (S. pombe, UniProt O60016 192-490)
- Sequence (O60016 192-490): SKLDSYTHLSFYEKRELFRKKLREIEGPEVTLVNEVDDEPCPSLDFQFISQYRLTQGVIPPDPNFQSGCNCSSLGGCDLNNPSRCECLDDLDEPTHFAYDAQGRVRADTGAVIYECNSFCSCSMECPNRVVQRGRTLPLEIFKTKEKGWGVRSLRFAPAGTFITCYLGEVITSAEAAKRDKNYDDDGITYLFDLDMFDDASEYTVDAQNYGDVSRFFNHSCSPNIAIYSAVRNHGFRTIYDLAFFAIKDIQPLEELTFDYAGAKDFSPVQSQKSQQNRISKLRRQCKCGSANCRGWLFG
- protocol summary: ITC
readout label: pKd
Would you please state pKd, meaning minus log10 of the concentration in mol/L, as a bare number?

Q. What value of measured pKd is listed for H3(1–20)_([change])-Ub_([change]), disulfide bond-linked ubiquitinated H3 tail (other) chain 1: ARTKQTARKSTGGCAPRKQL chain 2: […] ?
A. 3.88
